assay.comment: Blood concentration of dutasteride at Day 28 (Example 3)
Assay type: in vivo
measurement.parameters: C57bl, mice, Oral, daily dose 5-10 ug/mouse, read-out: Blood conc (ng/ml) of dutasteride

{"columns": ["compound", "concentration at 28 day"],
 "data": [
  ["C[C@]12C=CC(=O)N[C@@H]1CC[C@@H]1[C@@H]2CC[C@]2(C)[C@@H](C(=O)Nc3cc(C(F)(F)F)ccc3C(F)(F)F)CC[C@@H]12 [dutasteride]", "39 ng/mL"]
]}
